// data source = ChEMBL document CHEMBL4513216

Listing of recorded cytotoxicity at 10 µM by entry.
experiment: Toxicity liver stage against HepG2, at 10uM; format: cell-based; design: test concentration 10 uM, cell line HepG2-A16-CD81EGFP; conditions: human, HepG2-A16-CD81EGFP cells; read-out: INHIBITION
Answer with a number only, understood to be in %.

Field request: cytotoxicity at 10 µM | item: "Cn1ccnc1SCCNc1cc(N2CCOCC2)ncn1" 4.91

Now consider "O=C(c1ccon1)N1CCN(c2ccncc2Cl)CC1" . 2.22

Also O=c1oc(-c2cccs2)nn1CC(O)c1ccccc1F (centres undefined) ? -14.7

Item: Cc1cn2nc(N3CCCCC3Cn3cccn3)sc2n1 (centres undefined) -1.14

* * *

experiment: Toxicity liver stage against HepG2, at 10uM; type: cell-based; design: test concentration 10 uM, cell line HepG2-A16-CD81EGFP; conditions: human, HepG2-A16-CD81EGFP cells; read-out: INHIBITION
Property name: cytotoxicity at 10 µM (%)
# value in %; strip the unit string

Worked cases, answers included:
O=C(C1CCCC1)N1C[C@@H](c2ccsc2)[C@@H]2CN(C3CCCC3)CC[C@@H]21 = 4.79
Cc1cnc(N2C(=O)CSC2c2ccc(N(C)C)cc2)s1 (stereo not given) = 6.07
CNC(=O)[C@H]1C[C@@H]2CN(S(=O)(=O)c3ccccc3)C[C@@H]2N1C = -5.27
Cc1ccc(S(=O)(=O)N2C[C@@H]3CCN[C@@H]3C2)cc1 = 2.94

Please examine the following record next.
Looking for the measured cytotoxicity at 10 µM of O=C(CN1CCOC(Cn2cccn2)C1)NC(C1CC1)C1CC1 (stereo not given) , can you help? -42.1

* * *

Catalogue of compounds with associated cytotoxicity at 10 µM
assay: Toxicity liver stage against HepG2, at 10uM; format: cell-based; set-up: test concentration 10 uM, cell line HepG2-A16-CD81EGFP; settings: human, HepG2-A16-CD81EGFP cells; read-out: INHIBITION
The response must be a number in % with no trailing unit.

Nc1cc(CCC2CN(Cc3ccc4c(c3)OCCO4)CCO2)ccn1 (stereo unspecified) = 15.8
Cc1ccc(C(=O)N2CC[C@H](N3CCOCC3)[C@H](CCCO)C2)cc1O = -154

cytotoxicity at 10 µM for "CC(C)c1cnc(N2C[C@H](CO)C[C@H](CN3CCOCC3)C2)nc1" ? -7.45

Repeat with "CCn1c(C)nc2cc(NC(=O)C3CN(C(C)=O)C3)ccc21" 3.46

Check COc1ncccc1NC(=O)N1CCCC(CNC(=O)OC(C)(C)C)C1 (stereo unspecified) too. -1.71

Queued: COCC(C)N1CCN(CCc2ccc3c(c2)CCO3)CC1 (stereo unspecified) 4.16

Please answer likewise for "Cc1cccc(CNC[C@H]2COCc3nc4cccnc4n32)n1" -1.79

* * *

experiment: Toxicity liver stage against HepG2, at 10uM; type: cell-based; design: test concentration 10 uM, cell line HepG2-A16-CD81EGFP; details: human, HepG2-A16-CD81EGFP cells; read-out: INHIBITION
Property name: cytotoxicity at 10 µM (%)
Reply numerically in %, unit not repeated.

Below, each entry is followed by its recorded cytotoxicity at 10 µM result.
NC(=O)c1cc(NC(=O)N2CCCCCC2)ccc1F = 0.692
CC(=O)N1CCOC2(CCCN(C(=O)CCN3CCCCC3)C2)C1 (stereo not drawn) = -2.51
Cc1ccc(C(=O)N(C2CC2)C2CC(=O)NC2=O)cc1F (stereo not drawn) = -7.33
CCn1nc(C)c(CCNC(=O)C2CCCN(C(N)=O)C2)c1C (stereo not drawn) = -11.2
OC(CN1CCN(Cc2ccc(F)cc2)CC1)C1CC1 (stereo not drawn) = -23.4
COCc1cc(O)nc(C2CCCN(Cc3cc(OC)ccc3F)C2)n1 (stereo not drawn) = 4.42
COc1cccc(CC(=O)N2CCC(c3ccn4nccc4n3)CC2)c1 = -3.79
CCc1ccc(C(=O)N2CCCC(n3nc(C)nc3C)C2)o1 (stereo not drawn) = -7.8

Bench note: what cytotoxicity at 10 µM did "Nc1nnc(CCCNc2ncnc3c2CCN(C(=O)C2CC2)C3)s1" show? -3.94

What do you have for "CCC(CC)NC(=O)c1cncc(Br)c1" ? -0.211

Entry "CCOc1ncnc2c1CCN(C(=O)c1ccncc1F)CC2" please -76.6

Can you handle "CS(=O)(=O)N1CCC(C(=O)N2CCOc3ccccc32)CC1" next? -0.595

Also check "CC(C)NC(=O)Cn1cc(-c2ccccc2)cn1" -0.577

What do you get for "c1ccc(OCc2nnc3n2CCN(Cc2ccco2)C3)nc1" ? 5.5

Try this compound too: "CCn1c(Cn2cccn2)nnc1C1CCN(Cc2ccc(C)o2)CC1" -1.14

Also, "O=S(=O)(Cc1ccccc1)NC[C@H]1Cn2ccnc2CO1" please. 6.88

* * *

test: Toxicity liver stage against HepG2, at 10uM; assay type: cell-based; set-up: test concentration 10 uM, cell line HepG2-A16-CD81EGFP; conditions: human, HepG2-A16-CD81EGFP cells; read-out: INHIBITION
# cytotoxicity at 10 µM annotations
// units = %; emit number, no label

Worked cases, answers included:
COCCNC(=O)c1cc(S(=O)(=O)N2CCCCCC2)cs1 = -14.8
Cc1c(Cl)cccc1NC(=O)CN(Cc1cccnc1)C(C)C = 4.77
CC(=O)N1C[C@@H](c2ccsc2)[C@@H]2CN(Cc3cccc(Cl)c3)CC[C@@H]21 = 13.1
Cc1ccc2c(C(=O)N(C)C)cc(-c3cnn(CCO)c3)nc2c1C = 3.69
CC(=O)c1ccc(OCC(=O)NS(=O)(=O)c2cccnc2)cc1 = -18
CN(CC1COc2ccccc2O1)C(=O)NCCCn1cncn1 (stereo unspecified) = -0.884

Need cytotoxicity at 10 µM of N#Cc1ccc(CN2CCCC2Cn2cccn2)c(F)c1 (stereo unspecified) , thanks. -9.2

Ok, now CCC(CNC(=O)Nc1cnn(CC)c1)N1CCCC1 (stereo unspecified) -1.47

Now the same for "Cc1c(Cl)cccc1NC(=O)Cn1cc(C(=O)O)ccc1=O" -5.21

Try this molecule next: "Cn1cnc2cc(C(=O)NS(=O)(=O)c3ccccc3Cl)ccc21" -7.43

# iterate: "O=S(=O)(NCc1ccccc1)Nc1ccc(-n2cncn2)cc1" 4.44

* * *

assay: Toxicity liver stage against HepG2, at 10uM; format: cell-based; design: test concentration 10 uM, cell line HepG2-A16-CD81EGFP; conditions: human, HepG2-A16-CD81EGFP cells; read-out: INHIBITION
Here, each record is paired with measured cytotoxicity at 10 µM data.
Numbers only; they are read as %.

Fill in the blank: the reported cytotoxicity at 10 µM of N#Cc1cccc(N2CC3(CCN(C(=O)C4CC=CC4)C3)CC2=O)c1 (stereo unspecified) is ____. 1.77

Entry to check: CC(C)C(=O)N1CCN(Cc2cnn(C)c2)CC2(CC(=O)N(C)C2)C1 (stereo unspecified) 3.42

What do we get for "CC(=O)N1CCCN(Cc2cc(F)cc(Br)c2)CC1" ? 7.72

What do you get for "CCc1nc(CN2CCCN(C(=O)C3CCOCC3)CC2)cs1" ? -8.11

Okay, and "CC(C)(CNC(=O)NCCOc1cccc(F)c1)C(N)=O" ? -8.93

* * *

experiment: Toxicity liver stage against HepG2, at 10uM; format: cell-based; parameters: test concentration 10 uM, cell line HepG2-A16-CD81EGFP; settings: human, HepG2-A16-CD81EGFP cells; read-out: INHIBITION
Property name: cytotoxicity at 10 µM
Express your answer as a number followed by its unit.

CC(C)(C)CC(=O)N1CC[C@@H](CC(=O)O)[C@@H](CCN2CCCCC2)C1 = -1.11%
Cc1ccccc1-n1nccc1NC(=O)CCOC(C)C = 0%

Param item = "CCc1nnc2n1CCN(Cc1csc(-c3ncccn3)n1)C2" ; retrieve measured cytotoxicity at 10 µM. -2.33%

# iterate: "O=C(NCCCC(=O)N1Cc2ccccc2C1)NCc1nccs1" -1.37%

// repeat for "CC(C)N1CCc2nnc(COc3cncnc3)n2CC1" and report 2.7%

Queued: "COCC(=O)N1CCc2[nH]c(=O)ccc2C1" 4.11%

How about "COCCCNC(=O)C1CN(C(=O)c2cnccn2)C1" ? 0.722%

Input COCCC1(CO)CCCN(C(=O)c2ccc(C(C)C)[nH]c2=O)C1 (configuration not stated) -55.1%

Moving on to "CN1CCN(Cc2cnc3n2CCN(Cc2cccnc2)CC3)CC1" 6.26%

Thanks! And CC(NC(=O)N1CCN(c2ncccn2)CC1)c1ccc(C#N)cc1 (configuration not stated) ? -2.81%

Entry to check: "CC(=O)Nc1ccc(CNC(=O)CNCc2sc(C)nc2C)cc1" 6.95%

# repeat for CC(=O)N1N=C(c2ccccc2)OC1C(=O)NCCc1cccc(Cl)c1 (configuration not stated) 2.82%
